test system: mouse microsomal triglyceride transfer protein mRNA; assay: Antisense inhibition of mouse microsomal triglyceride transfer protein mRNA levels in primary hepatocytes, quantitative real-time PCR; assay type: cell-based; design: concentration or dose not given beside the values; conditions: averages from two experiments
Strand notation (5' to 3'): a small letter for the sugar, then the base; units joined by * are phosphorothioate-linked, units joined directly phosphodiester-linked; [ ] holds rarer units or linkages, { } end groups; capitals alone tell only the bases. e = 2'-O-(2-methoxyethyl) (MOE); [5mC] = 5-methylcytosine; d = 2'-deoxy (DNA)
assay-readout: % INHIB (inhibition of mouse microsomal triglyceride transfer protein mRNA levels) (%)
Please respond with the number in % and leave the unit unwritten.

State the recorded % INHIB (inhibition of mouse microsomal triglyceride transfer protein mRNA levels) for this entry: 144481 (eT*eT*e[5mC]*e[5mC]*eA*dG*dT*dG*d[5mC]*dT*d[5mC]*d[5mC]*dG*d[5mC]*d[5mC]*eA*eG*eA*eG*eA; antisense) [compound 144481]
33

What value of % INHIB (inhibition of mouse microsomal triglyceride transfer protein mRNA levels) has been recorded for this entry: 144506 (e[5mC]*eA*e[5mC]*eA*eT*d[5mC]*d[5mC]*dG*dG*d[5mC]*d[5mC]*dA*d[5mC]*dT*dA*eG*eG*e[5mC]*eT*e[5mC]; antisense) [compound 144506]
0
